assay target: Histone acetyltransferase KAT6A (Homo sapiens, UniProt Q92794)
Sequence (Q92794 whole entry): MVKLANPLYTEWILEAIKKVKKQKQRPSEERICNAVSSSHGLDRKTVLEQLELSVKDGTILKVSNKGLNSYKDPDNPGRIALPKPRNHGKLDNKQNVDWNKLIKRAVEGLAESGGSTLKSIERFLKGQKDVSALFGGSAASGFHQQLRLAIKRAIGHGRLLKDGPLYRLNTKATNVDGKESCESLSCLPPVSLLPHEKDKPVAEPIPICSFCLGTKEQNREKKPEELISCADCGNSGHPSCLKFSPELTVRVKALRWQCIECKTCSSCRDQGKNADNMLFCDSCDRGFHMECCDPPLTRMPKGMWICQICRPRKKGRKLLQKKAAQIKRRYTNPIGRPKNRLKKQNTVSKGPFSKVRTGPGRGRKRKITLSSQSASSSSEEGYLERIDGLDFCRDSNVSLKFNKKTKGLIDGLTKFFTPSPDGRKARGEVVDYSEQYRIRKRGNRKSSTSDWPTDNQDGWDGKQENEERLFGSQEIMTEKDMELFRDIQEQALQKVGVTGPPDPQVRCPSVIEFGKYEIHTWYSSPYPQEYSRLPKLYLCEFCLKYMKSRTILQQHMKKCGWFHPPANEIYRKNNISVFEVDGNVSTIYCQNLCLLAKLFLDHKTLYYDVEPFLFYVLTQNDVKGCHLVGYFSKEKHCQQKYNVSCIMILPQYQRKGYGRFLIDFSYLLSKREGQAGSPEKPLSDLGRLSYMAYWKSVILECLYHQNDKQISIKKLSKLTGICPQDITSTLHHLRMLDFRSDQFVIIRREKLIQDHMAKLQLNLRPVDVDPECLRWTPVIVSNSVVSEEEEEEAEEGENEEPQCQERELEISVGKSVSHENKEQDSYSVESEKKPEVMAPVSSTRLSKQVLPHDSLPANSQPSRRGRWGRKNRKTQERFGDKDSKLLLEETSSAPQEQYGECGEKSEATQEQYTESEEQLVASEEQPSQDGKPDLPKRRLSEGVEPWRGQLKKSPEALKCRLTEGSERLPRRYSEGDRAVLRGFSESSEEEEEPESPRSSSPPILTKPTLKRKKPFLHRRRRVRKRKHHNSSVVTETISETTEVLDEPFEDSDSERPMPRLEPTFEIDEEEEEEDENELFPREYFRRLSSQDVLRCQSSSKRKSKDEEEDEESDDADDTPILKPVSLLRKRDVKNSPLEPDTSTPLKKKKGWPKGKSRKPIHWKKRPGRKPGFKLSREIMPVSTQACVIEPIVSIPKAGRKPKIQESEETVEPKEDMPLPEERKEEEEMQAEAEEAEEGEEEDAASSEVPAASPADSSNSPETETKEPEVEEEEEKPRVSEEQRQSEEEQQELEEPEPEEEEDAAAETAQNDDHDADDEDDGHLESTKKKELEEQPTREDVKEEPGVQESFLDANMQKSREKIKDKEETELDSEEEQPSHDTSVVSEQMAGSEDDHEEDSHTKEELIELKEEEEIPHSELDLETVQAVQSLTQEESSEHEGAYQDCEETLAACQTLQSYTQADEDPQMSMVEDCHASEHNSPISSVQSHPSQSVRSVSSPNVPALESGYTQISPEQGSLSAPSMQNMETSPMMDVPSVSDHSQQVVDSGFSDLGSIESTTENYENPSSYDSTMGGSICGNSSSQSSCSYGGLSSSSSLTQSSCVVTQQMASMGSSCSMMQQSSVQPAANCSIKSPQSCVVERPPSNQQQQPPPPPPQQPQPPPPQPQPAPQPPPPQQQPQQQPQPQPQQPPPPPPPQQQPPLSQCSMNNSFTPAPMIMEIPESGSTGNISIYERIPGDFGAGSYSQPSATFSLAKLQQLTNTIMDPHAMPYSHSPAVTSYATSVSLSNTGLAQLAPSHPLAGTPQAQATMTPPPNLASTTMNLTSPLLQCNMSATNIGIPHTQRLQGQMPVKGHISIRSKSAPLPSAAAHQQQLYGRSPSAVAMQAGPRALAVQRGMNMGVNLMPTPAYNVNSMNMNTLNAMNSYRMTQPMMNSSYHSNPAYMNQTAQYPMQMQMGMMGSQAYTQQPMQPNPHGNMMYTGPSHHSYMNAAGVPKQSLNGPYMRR
test details: Inhibition of KAT6A in human MVLN cells assessed as decrease in estrogen receptor level incubated for 24 hrs by gene reporter assay
Type: cell-based
measurement kind: IC50 (µM)

Use the examples below as a reference point.
Find the recorded IC50 belonging to O=C(NS(=O)(=O)c1ccccc1-c1ccccc1)c1cc2ccc(C3CC3)cc2o1 and report it.
1.02

Find the recorded IC50 belonging to COc1cc(C)c2cc(C(=O)NS(=O)(=O)c3ccc(Cl)cc3)oc2c1 and report it.
2.28

Find the recorded IC50 belonging to CCOc1cccc(-c2ccccc2)c1S(=O)(=O)NC(=O)c1cc2c(C)cc(OC)cc2o1 and report it.
1.4

Find the recorded IC50 belonging to COc1cc(C)cc2oc(C(=O)NS(=O)(=O)c3ccccc3-c3ccccc3)cc12 and report it.
10

Find the recorded IC50 belonging to COc1ccc2cc(C(=O)NS(=O)(=O)c3ccccc3-c3ccccc3)oc2c1 and report it.
7.62

I = COc1cc(C)c2cc(C(=O)NS(=O)(=O)c3cccc4ccc(C)nc34)oc2c1
II = COc1cc(C)c2cc(C(=O)NS(=O)(=O)c3ccccc3OC)oc2c1
Select the item with the higher value of IC50 from the options I and II listed. Your answer should be the label of the entry you select.
II
(II: 13.2 µM, I: 2.57 µM)

* * *

assay target: Histone acetyltransferase KAT6B (Homo sapiens)
Sequence (Q8WYB5 whole entry): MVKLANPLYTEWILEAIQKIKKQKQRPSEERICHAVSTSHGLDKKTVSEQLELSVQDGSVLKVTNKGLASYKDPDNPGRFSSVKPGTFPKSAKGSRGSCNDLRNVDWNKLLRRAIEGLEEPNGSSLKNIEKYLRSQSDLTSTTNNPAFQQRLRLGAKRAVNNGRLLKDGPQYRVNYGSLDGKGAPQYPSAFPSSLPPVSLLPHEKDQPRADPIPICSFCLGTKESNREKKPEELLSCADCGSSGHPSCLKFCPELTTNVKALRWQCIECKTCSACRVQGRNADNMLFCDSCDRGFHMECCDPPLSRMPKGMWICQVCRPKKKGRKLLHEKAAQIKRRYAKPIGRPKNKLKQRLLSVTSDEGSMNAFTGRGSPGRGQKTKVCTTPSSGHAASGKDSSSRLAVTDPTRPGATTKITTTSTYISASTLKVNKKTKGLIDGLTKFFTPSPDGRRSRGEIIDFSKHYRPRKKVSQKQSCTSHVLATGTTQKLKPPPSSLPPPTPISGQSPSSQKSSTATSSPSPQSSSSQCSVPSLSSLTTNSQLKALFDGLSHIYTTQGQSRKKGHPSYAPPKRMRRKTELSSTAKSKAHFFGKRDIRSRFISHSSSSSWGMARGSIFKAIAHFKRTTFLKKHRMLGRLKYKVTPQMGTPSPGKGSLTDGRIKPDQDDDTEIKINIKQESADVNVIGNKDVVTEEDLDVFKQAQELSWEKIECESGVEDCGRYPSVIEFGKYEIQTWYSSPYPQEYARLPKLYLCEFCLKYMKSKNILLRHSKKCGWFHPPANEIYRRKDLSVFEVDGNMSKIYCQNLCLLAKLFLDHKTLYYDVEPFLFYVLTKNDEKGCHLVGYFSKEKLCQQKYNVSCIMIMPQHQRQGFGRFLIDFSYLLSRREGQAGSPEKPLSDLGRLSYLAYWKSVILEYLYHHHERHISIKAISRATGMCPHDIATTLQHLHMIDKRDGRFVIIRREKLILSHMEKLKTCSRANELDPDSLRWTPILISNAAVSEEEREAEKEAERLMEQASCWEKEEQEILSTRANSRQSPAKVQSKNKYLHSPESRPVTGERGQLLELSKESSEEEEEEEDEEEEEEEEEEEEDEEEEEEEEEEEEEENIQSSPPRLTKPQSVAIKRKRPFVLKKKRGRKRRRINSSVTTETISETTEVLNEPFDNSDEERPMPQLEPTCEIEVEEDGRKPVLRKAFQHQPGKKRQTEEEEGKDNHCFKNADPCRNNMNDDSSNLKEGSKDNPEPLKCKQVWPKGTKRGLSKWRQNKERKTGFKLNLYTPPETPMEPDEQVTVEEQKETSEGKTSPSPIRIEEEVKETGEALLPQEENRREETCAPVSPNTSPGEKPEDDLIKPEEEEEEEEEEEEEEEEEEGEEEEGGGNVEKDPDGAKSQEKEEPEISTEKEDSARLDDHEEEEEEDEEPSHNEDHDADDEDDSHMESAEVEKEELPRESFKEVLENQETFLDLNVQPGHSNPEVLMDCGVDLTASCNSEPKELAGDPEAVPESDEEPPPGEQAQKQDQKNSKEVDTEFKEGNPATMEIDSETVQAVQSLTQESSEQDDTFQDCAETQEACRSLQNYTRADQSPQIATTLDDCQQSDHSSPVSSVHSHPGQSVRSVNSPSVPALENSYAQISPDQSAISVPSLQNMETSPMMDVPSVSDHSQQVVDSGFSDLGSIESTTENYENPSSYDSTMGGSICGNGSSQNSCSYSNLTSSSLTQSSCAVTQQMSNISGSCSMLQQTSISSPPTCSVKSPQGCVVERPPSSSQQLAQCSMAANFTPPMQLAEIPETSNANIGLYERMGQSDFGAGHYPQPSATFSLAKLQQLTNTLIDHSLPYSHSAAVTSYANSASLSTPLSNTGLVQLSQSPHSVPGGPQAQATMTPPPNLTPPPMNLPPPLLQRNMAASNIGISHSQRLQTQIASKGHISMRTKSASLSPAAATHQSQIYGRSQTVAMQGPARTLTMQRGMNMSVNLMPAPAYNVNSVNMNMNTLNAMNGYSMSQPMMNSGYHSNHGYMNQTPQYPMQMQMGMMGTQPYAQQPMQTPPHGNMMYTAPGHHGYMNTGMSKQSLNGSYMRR
test details: Inhibition of C-terminal human recombinant KAT6B (431 to end residues) expressed in baculovirus-infected Sf9 insect cells using H4-derived peptide as substrate incubated for 30 mins in presence of AcCoA by TR-FRET assay
pIC50: −log10 of the molar value.
measurement kind: pIC50

Use the examples below as a reference point.
Find the recorded pIC50 belonging to Cc1cccc2oc(C(=O)NS(=O)(=O)c3ccccc3-c3ccccc3)cc12 and report it.
5.59

Find the recorded pIC50 belonging to O=C(NS(=O)(=O)c1ccccc1-c1ccccc1)c1cc2ccccc2o1 and report it.
4.98

Find the recorded pIC50 belonging to COc1cccc2oc(C(=O)NS(=O)(=O)c3ccccc3-c3ccccc3)cc12 and report it.
5.50

A = COc1ccc2oc(C(=O)NS(=O)(=O)c3ccccc3-c3ccccc3)cc2c1
B = COc1ccc2cc(C(=O)NS(=O)(=O)c3ccccc3-c3ccccc3)oc2c1
Lowest pIC50? choose A or B Your answer should be the label of the entry you select.
A

P = COc1cccc2cc(C(=O)NS(=O)(=O)c3ccccc3-c3ccccc3)oc12
Q = COc1cc(C)c2cc(C(=O)NS(=O)(=O)c3ccccc3-c3ccccc3)oc2c1
Select the item with the higher value of pIC50 from the options P and Q listed. Your answer should be the label of the entry you select.
Q
(Q: 7.12, P: 6.45)

* * *

test details: Half life in mouse at 0.5 mg/kg, iv
Format: ADME, organism-based
recorded conditions: in vivo
measurement kind: half-life (h)
Write the answer as a number in h, unit excluded.

Find the recorded half-life belonging to CN(C)c1ccc2cc(C(=O)NS(=O)(=O)c3ccccc3-c3ccccc3)oc2c1 and report it.
1.3

* * *

test details: Clearance in mouse at 0.5 mg/kg, iv
Assay type: ADME, organism-based
recorded conditions: in vivo
measurement kind: clearance (mL/min/kg)
Write the answer as a number in mL/min/kg, unit excluded.

Find the recorded clearance belonging to CN(C)c1ccc2cc(C(=O)NS(=O)(=O)c3ccccc3-c3ccccc3)oc2c1 and report it.
9.33
